Provenance of the data: patent US20030175703

Target: thrombin (F2) (human, UniProt P00734;P00734 P00734:328-363,P00734:364-622)
pKd: −log10 of the molar value.
Quick reference for pKd among some binders

Example entries begin here.
Exercise: # query: pKd of entry GGGAACAAAGCUGAAGAACUUACCC (ssRNA) [TOG 25 short loop U2]
Key: ~9.00

Exercise: What do you get for GGGAACAAAGCAGAAGUACUUACCC (ssRNA) [TOG 25 short loop U1] ?
Key: ~6.60

Exercise: What do you get for GGGAACAAAGCUGAAGUACUUACCC (ssRNA) [TOG 25 short (TOGGLE-25t)] ?
Key: ~9.00

Read the next record carefully.
Exercise: # query: pKd of entry GGGAACAAAGCUGAAGUACUUAGGG (ssRNA) [TOG 25 short no stem]
Key: ~6.00
